target: UniProt P19020; assay: [3H]-7-OH-DPAT binding to rat recombinant D3 dopamine receptors (SPA); details: [3H]-7-OH-DPAT, CHO cell membranes; read-out: Binding affinity for D3 dopamine receptors Ki
Sequence (P19020 whole entry): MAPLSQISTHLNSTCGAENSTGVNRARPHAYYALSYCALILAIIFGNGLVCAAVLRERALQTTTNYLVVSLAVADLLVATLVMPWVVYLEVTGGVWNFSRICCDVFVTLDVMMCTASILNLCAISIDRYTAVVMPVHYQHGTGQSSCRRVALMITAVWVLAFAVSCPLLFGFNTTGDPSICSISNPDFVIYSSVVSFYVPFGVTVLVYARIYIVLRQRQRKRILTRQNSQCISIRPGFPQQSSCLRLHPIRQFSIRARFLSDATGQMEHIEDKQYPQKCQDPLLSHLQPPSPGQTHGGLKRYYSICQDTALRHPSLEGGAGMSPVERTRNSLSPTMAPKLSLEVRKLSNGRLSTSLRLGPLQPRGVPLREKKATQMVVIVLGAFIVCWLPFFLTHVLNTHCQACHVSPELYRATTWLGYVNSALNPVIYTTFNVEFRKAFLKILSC
endpoint_name: pKi
Quick note: pKi means taking -log10 of the concentration in moles per liter.

| compound | observed_result |
| --- | --- |
| COc1ccccc1N1CCN(CC[C@H](c2ccccc2F)[C@@H](O)C2CCCCC2)CC1 [Ex. 1Y] | 7.70 |
| COc1ccccc1N1CCN(CC[C@@H](c2ccccc2F)[C@H](O)C2CCCCC2)CC1 (racemic) [Ex. 1] | 7.90 |
| COc1ccccc1N1CCN(CC[C@H](c2ccccc2)[C@@H](O)C2CCCCC2)CC1 (racemic) [Ex. 5, reference compound] | 8.15 |

Let's switch to this compound now.
**Query** Name the reported pKi value associated with the compound COc1ccccc1N1CCN(CC[C@H](c2ccccc2F)[C@H](O)C2CCCCC2)CC1 [Ex. 2X]
**Result** 8.52
